# Test system: A498 renal
# measurementProtocol: NCI-60 one-dose screen, 48 h (100 = growth as untreated, 0 = no growth, -100 = all killed)
# cond: 10 µM unless noted
About 83,000 compounds went through this panel and 20% of them were active in at least one assay; those are over-represented in the sample as a whole.
Entry flag: yes (1) if growth reaches 80%; no (0) if it does not.

- compound: "Cn1c(=O)c2c(nc(NC3=NS(=O)(=O)c4ccccc43)n2CC(=O)N2CCc3ccccc32)n(C)c1=O"
  discreteLabel: "no (0)"
- compound: "CC(=O)n1nc(C(=O)OC(C)C)c2cc(C)c(C)cc21"
  discreteLabel: "yes (1)"
- compound: "Cc1ccc(-c2nc(/C=C3/C(=O)Nc4ccccc43)c3ccccn23)cc1"
  discreteLabel: "yes (1)"
- compound: "O=C(CSc1nc(-c2ccccc2)[nH]c1S(=O)(=O)c1ccccc1)NC1CC1"
  discreteLabel: "no (0)"
- compound: "CN1CCN(Cc2ccc(NC(=O)c3cncc(C#Cc4cnc(N)c5ccccc45)c3)cc2C(F)(F)F)CC1"
  discreteLabel: "no (0)"
- compound: "CCCCNC(=O)Oc1ccc(/C(=C(/CC)Cc2ccccc2)c2ccc(OCCN3CCCCCC3)cc2)cc1"
  discreteLabel: "no (0)"
- compound: "Cc1ccc(C2=Nc3c(N)ncnc3NC(c3ccc4c(c3)OCO4)C2)cc1 (stereo not given)"
  discreteLabel: "no (0)"
- compound: "COc1cc(-c2cc(-c3ccc(N(C)C)cc3)nc(N3CCC(O)CC3)c2C#N)cc(OC)c1OC"
  discreteLabel: "no (0)"
- compound: "CC(C)CCNC(=O)Cn1cccc(NC(=O)OCc2ccccc2)c1=O"
  discreteLabel: "yes (1)"
- compound: "O=C1c2c(c3c4ccc(Br)cc4oc3c3[nH]c4ccccc4c23)C(=O)N1O"
  discreteLabel: "no (0)"
- compound: "Cc1ccc(S(=O)(=O)N2CCCC2CO)cc1 (stereo not given)"
  discreteLabel: "no (0)"
- compound: "c1cnc2[nH]cc(-c3csc(-c4cn(CCCN5CCOCC5)c5ccccc45)n3)c2c1"
  discreteLabel: "no (0)"
- compound: "CCN1CC(=O)N(/N=C2\\C(=O)Nc3ccccc32)C1=S"
  discreteLabel: "yes (1)"
- compound: "CC1(C)CC[C@]2(c3nnc(-c4ccncc4)o3)CC[C@H]3C(=CC[C@H]4[C@@]3(C)CC[C@H]3C(C)(C)C(=O)CC[C@]43C)[C@@H]2C1"
  discreteLabel: "no (0)"
- compound: "COC(=O)c1c2c(c(C)[n+]([O-])c1C)C(=O)C(NCc1ccc(Cl)cc1)=CC2=O"
  discreteLabel: "yes (1)"
- compound: "CC(C)NC1CCC(Nc2ccnc3cc(Cl)ccc23)CC1 (stereo not given)"
  discreteLabel: "yes (1)"
- compound: "CC(=O)OC[C@]12CCC(C)(C)C[C@H]1[C@@]1(O)[C@H](O)C[C@@H]3[C@@]4(C)CCCNC(C)(C)[C@@H]4CC[C@@]3(C)[C@]1(C)CC2"
  discreteLabel: "yes (1)"
- compound: "COc1ccc(C(=S)N2CCN(c3ccccc3Cl)CC2)cc1OC"
  discreteLabel: "yes (1)"
- compound: "COc1ccc2c(O)c(/C=C3\\N=Nc4ccccc43)oc2c1C[C@@H]1CCNC[C@H]1F"
  discreteLabel: "no (0)"
- compound: "CC1=Nc2cnc(Nc3ccc(OCCN4CCCCC4)cc3)nc2Nc2ccccc21"
  discreteLabel: "no (0)"

---

# growth per record follows
# Tested on: MOLT-4 leukemia
# measurementProtocol: NCI-60 one-dose screen, 48 h (100 = growth as untreated, 0 = no growth, -100 = all killed)
# cond: 10 µM unless noted
The panel holds about 83,000 compounds, 20% with a hit somewhere; the sample as a whole holds those more often.

- molecule: "O=C1c2cc(Cl)ccc2S(=O)(=O)c2c(NCCCNCCO)nc3ccccc3c21"
  growth / %: -19
- molecule: "CCCCOC(=O)OCc1cc(=O)c(O)co1"
  growth / %: 102
- molecule: "Clc1ccc2c(c1)N(c1ncnc3ccc(-c4cnc5[nH]ncc5c4)cc13)CC2"
  growth / %: 3.68
- molecule: "CCOC(=O)CNP(=O)(OC[C@@H](Cc1ccccc1)NC(=O)c1cc2ccccc2s1)Oc1ccccc1 (stereo not given in full)"
  growth / %: 54.8
- molecule: "C=C1C(=O)O[C@H]2[C@H]1CC/C(COC(=O)NCc1ccc(Cn3c(=O)sn(CCI)c3=O)cc1)=C\\CC[C@@]1(C)O[C@@H]21"
  growth / %: -6.69

---

# Tested on: RPMI-8226 leukemia
# measurementProtocol: NCI-60 one-dose screen, 48 h
# cond: 10 µM unless noted
This is part of a sample that, as a whole, favours compounds with a hit. Of some 83,000 tested, about 20% had one in any assay. The source made the active and inactive calls. How the source made its calls: active means growth percent below 10; inactive means the rest.
Classes used: t for active, f for inactive

- compound: "CC(C)n1cnc2c(=S)nc[nH]c21"
  measurementTarget: "RPMI-8226 leukemia"
  discreteLabel: "f"
- compound: "CC(C)=NNc1ccccn1"
  measurementTarget: "RPMI-8226 leukemia"
  discreteLabel: "f"
- compound: "CCCc1cc(NC)nc(S(=O)(=O)CC)n1"
  measurementTarget: "RPMI-8226 leukemia"
  discreteLabel: "f"
- compound: "Cc1oc(-c2ccc(Cl)cc2)nc1/C=C/C(=O)c1ccccc1"
  measurementTarget: "RPMI-8226 leukemia"
  discreteLabel: "f"
- compound: "COc1ccc2c(O)c(/C=C3\\N=Nc4ncccc43)oc2c1C[C@H]1CCNC[C@H]1F"
  measurementTarget: "RPMI-8226 leukemia"
  discreteLabel: "t"
- compound: "C=C(CNCCc1ccc(O)cc1)[C@@H]1CC[C@]2(CO)CC[C@]3(C)[C@H](CC[C@@H]4[C@@]5(C)CCC(NCCO)C(C)(C)[C@@H]5CC[C@]43C)[C@@H]12 (stereo partly specified)"
  measurementTarget: "RPMI-8226 leukemia"
  discreteLabel: "t"
- compound: "CC(C)N1CN2C(=S)NC3C2N(C1)C(=S)N3C (stereo unspecified)"
  measurementTarget: "RPMI-8226 leukemia"
  discreteLabel: "f"
- compound: "CN1C(=O)N(C)C2Nn3c(s/c(=C\\c4ccc(C(F)(F)F)cc4)c3=O)=NC21 (stereo unspecified)"
  measurementTarget: "RPMI-8226 leukemia"
  discreteLabel: "f"
- compound: "O=C(NCCCN1CCOCC1)c1cccc(N2C(=O)/C(=C/c3ccc(F)cc3)SC2=S)c1"
  measurementTarget: "RPMI-8226 leukemia"
  discreteLabel: "f"
- compound: "Fc1ccc2[nH]cc(-c3nonc3-c3c[nH]c4ccc(Br)cc34)c2c1"
  measurementTarget: "RPMI-8226 leukemia"
  discreteLabel: "f"
- compound: "N#Cc1cccc(NC(=O)c2oc3ccccc3c2-c2cnn(-c3ccccc3)c2)c1"
  measurementTarget: "RPMI-8226 leukemia"
  discreteLabel: "t"
- compound: "O=C1/C(=C/c2ccc(Cl)cc2)COc2ccc(O)c(O)c21"
  measurementTarget: "RPMI-8226 leukemia"
  discreteLabel: "t"
- compound: "COC(=O)c1cc(-c2ccc(S(C)(=O)=O)cc2)[nH]c1N/N=C/c1c(Cl)cccc1Cl"
  measurementTarget: "RPMI-8226 leukemia"
  discreteLabel: "t"
- compound: "Cc1cc2c(O)c(-c3cc(Cl)ccc3Cl)c3sc(=O)oc3c2cc1C"
  measurementTarget: "RPMI-8226 leukemia"
  discreteLabel: "f"
- compound: "O=c1oc2ccc([N+](=O)[O-])cc2cc1Br"
  measurementTarget: "RPMI-8226 leukemia"
  discreteLabel: "f"
- compound: "O=C1c2cccnc2C(=O)c2c1c(C(=O)NCCn1ccnc1)c1ccccn21"
  measurementTarget: "RPMI-8226 leukemia"
  discreteLabel: "f"
- compound: "Cc1ccc(-c2nc(N3CCNCC3)c3oc(-c4ccccc4)nc3n2)cc1"
  measurementTarget: "RPMI-8226 leukemia"
  discreteLabel: "t"
- compound: "CCN(CC)c1nc(SCc2ccccc2Cl)ncc1C"
  measurementTarget: "RPMI-8226 leukemia"
  discreteLabel: "f"
- compound: "OCCNCCCOc1ccc2ncnc(Nc3ccc(Oc4cccc(C(F)(F)F)c4)c(Cl)c3)c2c1"
  measurementTarget: "RPMI-8226 leukemia"
  discreteLabel: "t"
- compound: "COC1=CC(c2ccc[nH]2)=N/C1=C\\c1[nH]c(C)c(C(=O)OCc2ccccc2)c1C"
  measurementTarget: "RPMI-8226 leukemia"
  discreteLabel: "t"
- compound: "N#Cc1nc(-c2ccccc2)oc1S(=O)(=O)N1CCOCC1"
  measurementTarget: "RPMI-8226 leukemia"
  discreteLabel: "f"

---

# System: HOP-62 NSCLC
# measurementProtocol: NCI-60 one-dose screen, 48 h (100 = growth as untreated, 0 = no growth, -100 = all killed)
# cond: 10 µM unless noted
Compounds without any hit were thinned out: in the full panel of roughly 83,000, 20% have a hit.

- compound: "CCN1CCN(c2cc(C(=O)Nc3nc(-c4cc(OC)c(OC)c(OC)c4)cs3)cc(C(F)(F)F)c2)CC1"
  measurementTarget: "HOP-62 NSCLC"
  growth / %: 82.7
- compound: "CCN(CC)c1ccc(/C=C/C(=O)c2ccc(Nc3nc(Nc4ccccc4)nc(Nc4ccccc4)n3)cc2)cc1"
  measurementTarget: "HOP-62 NSCLC"
  growth / %: 50.8
- compound: "CN1C(=O)/C(=C/c2cn(-c3ccccc3)nc2-c2ccccc2)SC1=S"
  measurementTarget: "HOP-62 NSCLC"
  growth / %: 97.9
- compound: "COC(C(=O)[C@@H](O)[C@@H](C)O)[C@@H]1Cc2cc3cc(O[C@H]4C[C@@H](O[C@H]5C[C@@H](O)[C@H](O)C(C)O5)[C@H](O)C(C)O4)c(C)c(O)c3c(O)c2C(=O)[C@H]1O[C@H]1C[C@@H](O[C@H]2C[C@@H](O[C@H]3C[C@@H](O)[C@H](OC)C(C)O3)[C@@H](O)C(C)O2)[C@H](O)C(C)O1 (stereo partly drawn)"
  measurementTarget: "HOP-62 NSCLC"
  growth / %: -6.87
- compound: "CCCCC[C@@H]1Cc2cc(O)c(C(=O)O)c3c2[C@H](C[C@]2(OC[C@@H](CC(=O)[C@@](C)(CC)C(=O)OC)[C@@H]2C)O3)O1"
  measurementTarget: "HOP-62 NSCLC"
  growth / %: 117
- compound: "CC(=O)Cc1nsc(NC(=O)c2cc(-c3cc(Cl)cc(Cl)c3)oc2C)n1"
  measurementTarget: "HOP-62 NSCLC"
  growth / %: 95.9
- compound: "Cn1cc(-c2csc(-c3c[nH]c4ccc(Br)cc34)n2)c2cnccc21"
  measurementTarget: "HOP-62 NSCLC"
  growth / %: -66.7
- compound: "CCN1C(=O)N(CC)C2C1NN=c1s/c(=C\\c3cccc([N+](=O)[O-])c3)c(=O)n12 (stereo not drawn)"
  measurementTarget: "HOP-62 NSCLC"
  growth / %: 40
- compound: "O=C(O)/C(=C\\c1ccc(Cl)cc1)c1ccc(Cl)cc1"
  measurementTarget: "HOP-62 NSCLC"
  growth / %: 104
- compound: "Cc1ccc(/C=N/Nc2nc(Nc3ccccc3)nc(-n3nc(C)cc3C)n2)cc1"
  measurementTarget: "HOP-62 NSCLC"
  growth / %: 73.3
- compound: "C/C(=C(/c1ccc(Cl)cc1)c1ccc(OCCN2CCCC2)cc1)c1ccc(Cl)cc1"
  measurementTarget: "HOP-62 NSCLC"
  growth / %: 104
- compound: "O=C(Cn1cc(CN2CCCCCC2)nn1)Nc1ccc2c(ccn2Cc2ccccc2)c1"
  measurementTarget: "HOP-62 NSCLC"
  growth / %: 80.6
- compound: "Cc1ccccc1/C=C1\\CN(C(=O)OC(C)(C)C)C/C(=C\\c2ccccc2C)C1=O"
  measurementTarget: "HOP-62 NSCLC"
  growth / %: 48.2
- compound: "COc1cc(NC(C)CCCNC(C)C)c2ncccc2c1OC (stereo not drawn)"
  measurementTarget: "HOP-62 NSCLC"
  growth / %: 98.3
- compound: "Cn1c(-c2ccc(Br)cc2)c(O)c(=O)c2c(F)cccc21"
  measurementTarget: "HOP-62 NSCLC"
  growth / %: 34
- compound: "Cc1ccc(S(=O)(=O)N2CCCC2CO)cc1 (stereo not drawn)"
  measurementTarget: "HOP-62 NSCLC"
  growth / %: 188
- compound: "O=C(Nc1cccnc1Nc1ccc(F)cc1)c1cn(Cc2cccc(Oc3ccccc3)c2)nn1"
  measurementTarget: "HOP-62 NSCLC"
  growth / %: 84.7
- compound: "COc1ccc2nc(NC(=O)CSc3nnc4n3S(=O)(=O)c3ccccc3N4C)sc2c1"
  measurementTarget: "HOP-62 NSCLC"
  growth / %: 97.9
